PROTOCOL: Elimination half life in healthy human subjects at 40 mg with water administered as single dose measured upto 24 hrs by LC-MS analysis
Assay type: ADME, organism-based
CONDITION DETAILS: in vivo, oral, read-out: beta t1/2 (converted)
OBSERVED PROPERTY: half-life (h)
Return type: number; implicit unit h.

q: I have this compound here, CCC(C)(C)C(=O)O[C@H]1C[C@@H](C)C=C2C=C[C@H](C)[C@H](CC[C@@H]3C[C@@H](O)CC(=O)O3)[C@H]21 , and I need its recorded half-life.
a: 2.7

----------
PROTOCOL: AUC (0 to 24 hrs) in healthy human subjects at 40 mg with water administered as single dose measured upto 24 hrs by LC-MS analysis
Assay type: ADME, organism-based
Design: time < 24 hr, dose 40 mg
CONDITION DETAILS: in vivo, oral
OBSERVED PROPERTY: AUC(0-t) at 24 h
Write the numeric value and follow it with the unit.

q: I have this compound here, CCC(C)(C)C(=O)O[C@H]1C[C@@H](C)C=C2C=C[C@H](C)[C@H](CC[C@@H]3C[C@@H](O)CC(=O)O3)[C@H]21 , and I need its recorded AUC(0-t) at 24 h.
a: 31.6 ng·h/mL
